Tested on: HCC-2998 colon
test-description: NCI-60 one-dose screen, 48 h (100 = growth as untreated, 0 = no growth, -100 = all killed)
reported-conditions: 10 µM unless noted
About 83,000 compounds went through this panel and 20% of them were active in at least one assay; those are over-represented in the sample as a whole.
readout-type: growth (%)

molecule	experimental-value
Cc1ccc(NC(=O)c2sc3nc4c(cc3c2N)C(=O)CCC4)cc1C	27.3
CC/C=C\C[C@H](O)C/C=C1/C(=O)C=C[C@@H]1C/C=C\CCCC(=O)NC	-90.7
C(=N\Nc1nnn(Cc2ccccc2)n1)/c1ccccc1	45.6
CN(C)CCOc1ccc(-c2nc3ccc(-c4nc5ccc(N6CCN(C)CC6)cc5[nH]4)cc3[nH]2)cc1	99
NC(CC(=O)O)C(=O)OCc1ccccc1 (configuration not stated)	104
O=C(NC(Cc1ccccc1)C(=O)CCl)OCc1ccccc1 (configuration not stated)	97.1
COc1ccc(-c2nc(Nc3cc(C)[nH]n3)c3ccccc3n2)cc1	74.2
CCOC(=O)C(C#N)C1CCCCC1 (configuration not stated)	102
NS(=O)(=O)c1ccc(-n2ncc3c(=O)[nH]c(CN4CCN(c5cc6c(cc5F)c(=O)c(C(=O)O)cn6C5CC5)CC4)nc32)cc1	93.9
Nc1c(C(=O)Nc2cccc3c2OCCO3)sc2nc3c(cc12)CN(Cc1ccccc1)CC3	101
COc1ccc2nc(NC(=O)c3cccnc3Nc3cc(OC)c(OC)c(OC)c3)sc2c1	77.8
Cc1ccc2c(NCCCN(C)C)c3c(C)nn(C)c3nc2c1	59.3
C[C@@]1(N2C(=O)OC[C@@H]2c2ccccc2)C(=O)N([C@H](CC(=O)N2CCC(N3CCCCC3)CC2)C(=O)NCc2cccc(C(F)(F)F)c2)[C@@H]1/C=C/c1ccccc1	47.3
CN1CCN(Cc2ccc(NC(=O)c3cncc(C#Cc4c(N)ncc5ccc(C#N)cc45)c3)cc2C(F)(F)F)CC1	78.5
COc1ccc(/C=C/C(=O)c2c(O)c(C)c(O)c3c2OC2=CC(O)=C(C(C)=O)C(=O)[C@]23C)cc1	-30.2
COc1ccc2[nH]c(=O)c(/C=C/C(=O)c3ccc(Nc4nccc(-c5ccc6ccccc6c5)n4)cc3)cc2c1	104
O=C(/C=C/c1ccc(Cl)cc1)/C=C/c1cc2ccccc2[nH]c1=O	73
CN(C)CCCC(=O)Nc1ccc(Cn2nnc3c2C(=O)c2nnn(Cc4ccc(NC(=O)CCCN(C)C)cc4)c2C3=O)cc1	59.3
Oc1c(Cl)cc(Cl)cc1CNc1nccnn1	98.6
COc1ccc(-n2cc(-c3ccccc3)c3c(SCC(=O)N/N=C/c4ccc([N+](=O)[O-])cc4)ncnc32)cc1	97.7
COc1cc(NCCCCCN=C(N)NC(N)=NC(C)C)c2ncccc2c1	11
Clc1nc(Cl)c2c3c(sc2n1)CCCC3	97.6
CC[C@H](CO)Nc1nc(NCc2ccccc2)n2ncc(C(C)C)c2n1	-27.9
Nc1nc2c(c3ncccc13)C(c1cccc(Br)c1)Cc1ncccc1-2 (configuration not stated)	25.4
CCOC(=O)c1nc(Nc2cc(C)[nH]n2)c2ccccc2n1	107
O=C(CN1CCN(c2cc3c(cc2F)c(=O)c(C(=O)O)cn3C2CC2)CC1)Nc1cc(=O)[nH]c(=O)[nH]1	98.1
NC1=CC(=O)C(=O)c2ccccc21	95
CNc1cc2nc3cc(NC)c(C)cc3cc2cc1C	18.7
CC/C(Cc1ccccc1)=C(/c1ccc(O)cc1)c1ccc(OCCN2CCCC2)cc1	-90.9
CCOC(=O)c1c2c(n3ccc(NC(=O)CCN4CCCCC4)cc13)C(=O)c1ncccc1C2=O	-66
O=C(CN1CCOCC1)Nc1ccc(Cn2nnc3c2C(=O)c2nnn(Cc4ccc(NC(=O)CN5CCOCC5)cc4)c2C3=O)cc1	-42
COc1nc2c(cc1S(=O)(=O)c1ccccc1)CCc1c-2cnn1Cc1ccccc1	60.5
CCOC(=O)c1c2ncccc2n2c(=O)n(-c3ccc(Cl)cc3)nnc12	90.3
CC(C)n1cc2c(N)ncnc2n1	122
Cc1cc(OCc2ccc(C(F)(F)F)cc2)c2c(c1)C(=O)C=C(NCCN1CCCC1)C2=O	15.2
Nc1c(C(=O)Nc2ccccc2Cl)sc2nc3c(cc12)CCCCCC3	33
COc1cccc(/C=C2/C(=O)N(Cc3ccco3)SC2=S)c1OC	108

###

Tested on: LOX IMVI melanoma
test-description: NCI-60 one-dose screen, 48 h
reported-conditions: 10 µM unless noted
Compounds without any hit were thinned out: in the full panel of roughly 83,000, 20% have a hit. Active and inactive are the calls of the source. Rule for the calls: active = growth percent below 10; inactive = the rest.
Outcomes: active, inactive

molecule	target-of-assay	category
CN1CCOCCOCCOc2ccccc2NC(=O)c2nc(cnc2N)-c2ccc(cc2)S1(=O)=O	LOX IMVI melanoma	inactive
CCOc1ccc(Nc2nc(-c3c(C)nc4ncccn34)cs2)cc1	LOX IMVI melanoma	inactive
CN1CCN(Cc2ccc(NC(=O)c3cncc(C#Cc4c(N)ncc5ccc(C#N)cc45)c3)cc2C(F)(F)F)CC1	LOX IMVI melanoma	active
CCOC(=O)c1nc(Nc2cc(C)[nH]n2)c2ccccc2n1	LOX IMVI melanoma	inactive
CNC(=O)c1cc(Oc2ccc3nc(NC(=O)Nc4ccc(CN5CCOCC5)c(C(F)(F)F)c4)sc3c2)ccn1	LOX IMVI melanoma	inactive
CCCCCCCCCCCCCC1=NCCN1CCO	LOX IMVI melanoma	active
COc1cccc(-c2nc3sccn3c2-c2ccnc(NCCCNS(=O)(=O)c3ccc(Cl)cc3)c2)c1	LOX IMVI melanoma	inactive
COc1ccc(-n2c(C)nc3c(c(C)nn3-c3ccccc3)c2=O)cc1	LOX IMVI melanoma	inactive
CCC(c1ccccc1)C(CC)c1ccc(O)c(O)c1 (stereo not given)	LOX IMVI melanoma	inactive
COc1ccc(C(=O)/C=C/c2c(Cl)c3c(c(OC)c2Cl)OCC(=O)N3)cc1	LOX IMVI melanoma	active

###

Test system: SR leukemia
test-description: NCI-60 one-dose screen, 48 h
reported-conditions: 10 µM unless noted
The panel holds about 83,000 compounds, 20% with a hit somewhere; the sample as a whole holds those more often. The source made the active and inactive calls. How the source made its calls: active means growth percent below 10; inactive means the rest.
Outcomes: t for active, f for inactive

compound	category
OCC1C2C=CC(C2)C1CO (stereo not given)	f
O=c1ccc2cc3ccccc3cc2[nH]1	f
COc1ccc(/C=N\NC(=O)CN2CCN(c3cc4c(cc3F)c(=O)c(C(=O)N/N=C/c3ccc(OC)cc3)cn4C3CC3)CC2)cc1	f
COCCCN=C(N)c1ccc(NC(=O)c2ccc(C(=O)Nc3ccc(C(N)=NCCCOC)cc3)cc2)cc1	f
CCCCCCCCCCCCCCCCCCNC(=O)[C@H]1CSC(c2ccc(OC)c(F)c2)N1 (stereo not given in full)	t
O=C(O)c1cccnc1Br	f
CCOC(=O)c1cnc2ccc(OC)cc2c1Nc1cccc(S(=O)(=O)NC)c1	f
CCc1ccccc1NC(=O)c1sc2nc3c(cc2c1N)C(=O)CCC3	t
COc1cnc2c(c1)C(=O)c1c-2n(CCCN2CCNCC2)c(=O)c2cc([N+](=O)[O-])ccc12	t
CC1=C(NCCN2CCCC2)C(=O)c2c(OCc3ccc(C(F)(F)F)cc3)cccc2C1=O	t
OC(c1cc(-c2ccccc2)nc2ccc(Cl)cc12)C1CCCCN1 (stereo not given)	t
O=c1c2cccc3c(Nc4c(F)cccc4F)ccc(c32)c2nc3ccccc3n12	f
O=C1c2cc3c(cc2-c2c1c1cc(Cl)c(Cl)cc1c(=O)n2CCCn1ccnc1)OCO3	t
CCCCCCCCCCCCCCCC[N+]1(CC)CCCC1	t
CCCCN(CCCC)Cc1c(C)[nH]c2cc(OC)ccc2c1=O	f
COCCOC(=O)C1=C(C)NC(=S)NC1c1ccc2c(c1)OCO2 (stereo not given)	f
CCCCNP1(NCCCC)=NP(NCCCC)(NCCCC)=NP(NCCCC)(NCCCC)=NP(NCCCC)(NCCCC)=N1	t
CCCCCC(=O)N(CCCC)CCCC	f
O=C1c2c[n+](Cc3ccccc3)ccc2-c2nc3ccccc3c3ccnc1c23	t
COc1ccc(-c2csc(NC(=O)CN3CCN(c4cc5c(cc4F)c(=O)c(C(=O)O)cn5C4CC4)CC3)n2)cc1	f
COc1cc(C2CC(=O)Nc3c2c(C)nn3-c2nc3ccccc3[nH]2)cc(OC)c1OC (stereo not given)	f
N#Cc1c(N)nc(N)nc1Nc1ccc(Br)cc1	f
COc1ccc(C(=O)c2sc3nc(-c4ccccc4OC)ccc3c2N)cc1OC	f
CCCCNc1ccc2c3c1cccc3c(=O)n1c3ccccc3nc21	f
CC(C)n1cc2c(N)ncnc2n1	f
Nc1nc2c(c3ncccc13)C(c1cccc(Br)c1)Cc1ncccc1-2 (stereo not given)	t
COc1ccc(S(=O)(=O)NCCNc2nccc(-c3c(-c4cccc([N+](=O)[O-])c4)nc4sccn34)n2)cc1	f
CCCCNC(=O)NS(=O)(=O)c1ccc(N2N=C(c3cc(C)ccc3C)CC2c2cc(OC)c(OC)c(OC)c2)cc1 (stereo not given)	f
CNc1nc(C)c(-c2nc(Nc3cccc(S(N)(=O)=O)c3)ncc2F)s1	t
Cc1sc2nc3[nH]/c(=C\c4ccc(Cl)cc4)c(=O)n3c(=O)c2c1C	f
